assay_info: pH dependency of esculetin spectra (pKa determination)
Assay type: physicochemical
measure_name: pKa

pKa lookup needed for O=c1ccc2cc(O)c(O)cc2o1 [esculetin, 6,7 dihydroxycoumarin] , thanks. 7.5
